In this section, each of the compounds is paired with its reported pIC50.
Target: KRAS G13D (Homo sapiens, UniProt P01116+P62937, G13D)
Sequence (P01116 1-169 isoform P01116-2 G13D limits assumed): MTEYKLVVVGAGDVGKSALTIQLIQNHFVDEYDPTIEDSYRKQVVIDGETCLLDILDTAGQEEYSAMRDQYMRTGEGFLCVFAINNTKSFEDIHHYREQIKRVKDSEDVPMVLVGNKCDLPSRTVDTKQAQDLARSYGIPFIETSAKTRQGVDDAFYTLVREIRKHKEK
Sequence (P62937 whole entry): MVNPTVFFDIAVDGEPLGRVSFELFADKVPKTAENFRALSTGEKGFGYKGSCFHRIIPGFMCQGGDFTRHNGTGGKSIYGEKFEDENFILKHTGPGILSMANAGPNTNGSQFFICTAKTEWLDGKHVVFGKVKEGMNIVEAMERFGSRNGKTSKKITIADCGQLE
Assay: Ras-Raf disruption / FRET / MOA assay (BRAF RBD)
Type: biochemical
Settings: Ras-Raf disruption, with Cyclophilin A; read-out: KRAS G13D FRET data IC50
pIC50: −log10 of the molar value.

Example compounds with recorded pIC50:
CCn1c(-c2cccnc2[C@H](C)OC)c2c3cc(ccc31)-c1cc(O)cc(c1)C[C@H](NC(=O)[C@H](C(C)C)N(C)C(=O)[C@H]1C[C@H](NC(=O)[C@@H]3CN3)C1)C(=O)N1CCC[C@H](N1)C(=O)OCC(C)(C)C2; 7.00 to 8.00
CCn1c(-c2cccnc2[C@H](C)OC)c2c3cc(ccc31)-c1csc(n1)C[C@H](NC(=O)[C@H](C(C)C)N(C)C(=O)N1CC(CN(C)C(=O)[C@@H]3CN3)C1)C(=O)N1CCC[C@H](N1)C(=O)OCC(C)(C)C2 (atropisomer, axis not shown); 6.00 to 7.00
CCn1c(-c2cccnc2[C@H](C)OC)c2c3cc(ccc31)-c1cc(O)cc(c1)C[C@H](NC(=O)[C@H](C(C)C)N(C)C(=O)c1ncc(NC(=O)[C@@H]3CN3)n1C)C(=O)N1CCC[C@H](N1)C(=O)OCC(C)(C)C2; 7.00 to 8.00
CCn1c(-c2cccnc2[C@H](C)OC)c2c3cc(ccc31)-c1cc(O)cc(c1)C[C@H](NC(=O)[C@H](C(C)C)N(C)C(=O)[C@@H]1CCCN(C(=O)[C@H]3CN3)C1)C(=O)N1CCC[C@H](N1)C(=O)OCC(C)(C)C2 (atropisomer, axis not shown); 6.00 to 7.00
CCn1c(-c2cccnc2[C@H](C)OC)c2c3cc(ccc31)-c1cc(O)cc(c1)C[C@H](NC(=O)[C@H](C(C)C)N(C)C(=O)C1CCN(S(=O)(=O)[C@H]3CN3C)CC1)C(=O)N1CCC[C@H](N1)C(=O)OCC(C)(C)C2 (single isomer, unassigned); 6.00 to 7.00

stdin: Bench note: what pIC50 did CCn1c(-c2cccnc2[C@H](C)OC)c2c3cc(ccc31)-c1cc(O)cc(c1)C[C@H](NC(=O)[C@H](C1CCCC1)N(C)C(=O)[C@H]1CCN(C[C@H]3CN3)C1=O)C(=O)N1CCC[C@H](N1)C(=O)OCC(C)(C)C2 show?
stdout: 7.00 to 8.00

stdin: Bench note: what pIC50 did CCn1c(-c2cccnc2[C@H](C)OC)c2c3cc(ccc31)-c1cc(O)cc(c1)C[C@H](NC(=O)[C@H](C1CCCC1)N1CC[C@]3(CCN(C(=O)[C@H]4CN4)C3)C1=O)C(=O)N1CCC[C@H](N1)C(=O)OCC(C)(C)C2 show?
stdout: 7.00 to 8.00

stdin: Bench note: what pIC50 did CCn1c(-c2cccnc2[C@H](C)OC)c2c3cc(ccc31)-c1csc(n1)C[C@H](NC(=O)[C@H](C(C)C)N(C)C(=O)N1CCN(C(=O)[C@@H]3CN3)CC1)C(=O)N1CCC[C@H](N1)C(=O)OCC(C)(C)C2 show?
stdout: 6.00 to 7.00
